assay_remarks: Aqueous solubility estimation (OECD test #105) in 1 M supporting electrolytes
stated_conditions: 1 M H2SO4 supporting electrolyte prepared from MilliQ water, aqueous buffer, thermodynamic from solid, Solubility, 1 M H2SO4, room temperature; interval just after / before full dissolution
recorded_metric: solubility

1. O=C1C(O)=C(Cl)C(=O)C(O)=C1Cl :: < 10 mM
2. c1cnccn1 :: ~7000 mM
3. O=C(O)c1cc(O)c2c(c1)C(=O)c1cccc(O)c1C2=O :: < 10 mM
4. O=C1c2ccc(O)cc2C(=O)c2ccc(O)cc21 [AQDH(2,6), 2,6-dihydroxy-9,10-anthraquinone] :: < 10 mM

Please look at the following molecule next.
Req: Any idea what solubility was measured for CC(C)=CCC1=C(O)C(=O)c2ccccc2C1=O ?
Resp: < 10 mM

The values you see were collected from paper PMC5155426.
